biological target: muscarinic cholinergic receptor; assay: [3H]-Cis-methyldioxolane (3H-CD) Binding Assay (High Affinity); conditions: rat cerebral cortex, 1.0 nM 3H-CD, 25° C., 120 minutes, pH 7.4
Rule: IC50 below 900 nM gives criterion met, anything at or above gives criterion not met.

Sample answers from the record:
Threshold test, IC50 < 900 nM: O=C1[C@H](O)CCN1CC#CCN1CCCC1
criterion met

Follow-up entry: O=C1[C@@H](O)CCN1CC#CCN1CCCCC1
criterion met

Proceed to O=C(O[C@@H]1CCN(CC#CCN2CCCCC2)C1=O)c1ccc([N+](=O)[O-])cc1
criterion not met

// query: CNC(=O)O[C@H]1CCN(CC#CCN2CCCCC2)C1=O
criterion not met

Now consider CC(=O)N(C)CC#CCN1CCC(O)C1 (racemic) [(Racemic)-N-[4-(3-Hydroxy-1-pyrrolidinyl)-2-butynyl]-N-methyl acetamide] .
criterion not met

Next:
For this molecule, is IC50 lower than 900 nM? CC(=O)S[C@@H]1CCN(CC#CCN(C)C)C1=O
criterion met

Again, but for CN(C)CC#CCN1CC[C@@H](OC(=O)c2ccc([N+](=O)[O-])cc2)C1=O
criterion not met

Likewise for CC(=O)O[C@@H]1CCN(CC#CCN2CCCC2)C1=O ?
criterion met

Item: CO[C@@H]1CCN(CC#CCN2CCCC2)C1=O
criterion not met

Same read-out for CC(=O)S[C@H]1CCN(CC#CCN(C)C)C1=O ?
criterion not met

Now the same for CC(=O)OC1CCN(CC#CCN2CCCC2=O)C1 (racemic) [(Racemic)-1-[4-[3-(Acetyloxy)-1-pyrrolidinyl]-2-butynyl]-2-pyrrolidinone]
criterion not met

Now this one: O=C(O[C@@H]1CCN(CC#CCN2CCCC2)C1=O)c1ccc([N+](=O)[O-])cc1
criterion not met

Likewise for O=C1C(S)CCN1CC#CCN1CCCCC1 (stereo not drawn) ?
criterion met

How about this molecule: CO[C@H]1CCN(CC#CCN2CCCCC2)C1=O
criterion not met

// repeat for CC(=O)S[C@@H]1CCN(CC#CCN2CCCCC2)C1=O and report
criterion not met

Thanks! And CC(=O)O[C@@H]1CC(=O)N(CC#CCN(C)C)C1 ?
criterion not met

Please do the same for CC(=O)O[C@H]1CCN(CC#CCN2CCCC2)C1=O as well.
criterion met

What would you report for CC(=O)OC1CCN(CC#CCN(C)C(C)=O)C1 (racemic) [(Racemic)-N-[4-(3-(Acetyloxy)-1-pyrrolidinyl]-2-butynyl]-N-methyl acetamide] ?
criterion not met

Try this molecule next: CC(=O)O[C@H]1CCN(CC#CCN2CCCC2=O)C1
criterion not met

Moving on to the next molecule: O=C1[C@H](S)CCN1CC#CCN1CCCC1
criterion met

----------
Recorded pIC50 by entry
target: muscarinic cholinergic receptor; experiment: [3H] Quinuclidinyl Benzilate (3H-QNB) Binding Assay; parameters: species or system rat; settings: pH 7.4
Bear in mind: pIC50 is minus log10 of a mol/L concentration; give just that figure.

I would be grateful if you could share the reported pIC50 for CC(=O)O[C@@H]1CCN(CC#CCN2CCCC2)C1=O .
3.64

Next:
Could you share which pIC50 value was measured for CC(=O)O[C@@H]1CCN(CC#CCN2CCCCC2)C1=O ?
3.38

Again, but for CC(=O)S[C@@H]1CCN(CC#CCN2CCCCC2)C1=O [(R)-S-[2-Oxo-1-(4-piperidinyl-2-butynyl)-3-pyrrolidinyl]etha]
4.04

Try this compound too: C[N+](C)(C)CC#CCN1CCCC1=O [reference compound]
4.74

Could you do the same for CO[C@@H]1CCN(CC#CCN2CCCC2)C1=O , please?
3.55

What about this compound? O=C1C[C@@H](O)CN1CC#CCN1CCCCC1
3.78

Cool, now CC(=O)S[C@@H]1CCN(CC#CCN(C)C)C1=O
4.70

CC(=O)O[C@@H]1CC(=O)N(CC#CCN(C)C)C1 , same question.
2.75

Likewise for CO[C@H]1CCN(CC#CCN2CCCC2)C1=O ?
3.36

----------
molecular target: muscarinic cholinergic receptor; experiment: [3H] Quinuclidinyl Benzilate (3H-QNB) Binding Assay; parameters: species or system rat; settings: pH 7.4
Counter-ions that a name gives are not always drawn.
attribute_measured: log10(IC50) (log10 of the value in µM)
Recall that a logarithmic scale is used here: each number is log10 of IC50 in µM.

May I ask what log10(IC50) has been recorded for CN(C)CC#CCN1CC[C@@H](S)C1=O [monohydrochloride] ?
1.49

How about CC(=O)OC1CCN(CC#CCN2CCCC2=O)C1 (racemic) [(Racemic)-1-[4-[3-(Acetyloxy)-1-pyrrolidinyl]-2-butynyl]-2-pyrrolidinone] ?
2.50

Try the molecule CN(C)CC#CCN1CCCC1=O [reference compound]
2.21

Ok, now CC(=O)O[C@@H]1CC(=O)N(CC#CCN2CCCCC2)C1
2.26

# iterate: O=C1[C@@H](O)CCN1CC#CCN1CCCCC1
1.34

Thanks! And O=C1C[C@H](O)CN1CC#CCN1CCCC1 ?
2.43

Try the molecule CC(=O)OC1CCN(CC#CCN(C)C(C)=O)C1 (racemic) [(Racemic)-N-[4-(3-(Acetyloxy)-1-pyrrolidinyl]-2-butynyl]-N-methyl acetamide]
3.29

----------
biological target: muscarinic cholinergic receptor; assay: [3H] Quinuclidinyl Benzilate (3H-QNB) Binding Assay; set-up: species or system rat; details: pH 7.4
attribute_measured: pIC50
Lab note: report pIC50 as minus log10 of the concentration in molar units, number only.

Examples with their reported pIC50 follow.
Entry O=C1C(S)CCN1CC#CCN1CCCCC1 (stereo not drawn) has what pIC50?
4.96

Similarly, O=C1C[C@@H](O)CN1CC#CCN1CCCC1 ?
4.28

Continuing:
Item under review: O=C1C[C@H](O)CN1CC#CCN1CCCCC1 . Reported pIC50?
3.70

----------
biological target: muscarinic cholinergic receptor; test: [3H] Quinuclidinyl Benzilate (3H-QNB) Binding Assay; parameters: species or system rat; details: pH 7.4
Quick rule for you: IC50 under 4 µM gets label 1, anything else gets label 0.

Please let me know if COC1CCN(CC#CCN(C)C(C)=O)C1 (racemic) [(Racemic)-N-[4-(3-Methoxy-1-pyrrolidinyl)-2-butynyl]-N-methyl acetamide] shows IC50 below 4 µM.
label 0

Next:
Please indicate whether the reported IC50 of CC(C)(C)[Si](C)(C)O[C@H]1CCN(CC#CCN2CCCCC2)C1=O is strictly below 4 µM.
label 0

Request: CC(=O)O[C@H]1CCN(CC#CCN2CCCCC2)C1=O
label 0

----------
# IC50 listing for each entry below
target: muscarinic cholinergic receptor; assay: [3H] Quinuclidinyl Benzilate (3H-QNB) Binding Assay; parameters: species or system rat; conditions: pH 7.4

# returns recorded IC50 (system: muscarinic cholinergic receptor) for O=C1[C@H](O)CCN1CC#CCN1CCCCC1
84 µM

Could you do the same for CC(=O)S[C@H]1CCN(CC#CCN2CCCC2)C1=O , please?
4 µM

For the next question, use this compound.
Give muscarinic cholinergic receptor IC50 for CO[C@H]1CCN(CC#CCN2CCCCC2)C1=O
673 µM

----------
target: muscarinic cholinergic receptor; assay: [3H] Quinuclidinyl Benzilate (3H-QNB) Binding Assay; design: species or system rat; settings: pH 7.4
Where a name gives a salt, the structure may show the parent alone.
attribute_measured: IC50 (µM)
Form entry: value (µM) — number only.

For orientation, consider the following solved cases.
// lookup IC50 for CN(C)CC#CCN1CC[C@@H](O)C1=O
1470

// next record O=C1[C@@H](S)CCN1CC#CCN1CCCC1 [monohydrochloride]
2

What about CC(=O)S[C@@H]1CCN(CC#CCN2CCCCC2)C1=O [(R)-S-[2-Oxo-1-[4-(1-piperidinyl)-2-butynyl]-3-pyrrolidinyl]] ?
4.3

Try this compound next: CC(=O)O[C@H]1CCN(CC#CCN2CCCC2)C1=O
122

Then what about the compound CC(=O)O[C@H]1CCN(CC#CCN2CCCC2=O)C1 ?
2320

Others:
Look up IC50: CC(=O)O[C@H]1CC(=O)N(CC#CCN(C)C)C1
1350

What do you get for CC(=O)S[C@H]1CCN(CC#CCN(C)C)C1=O ?
40

----------
Quick reference for IC50 among some compounds
molecular target: muscarinic cholinergic receptor; test: [3H] Quinuclidinyl Benzilate (3H-QNB) Binding Assay; design: species or system rat; details: pH 7.4
Counter-ions that a name gives are not always drawn.
Give just the number in µM; leave the unit off.

See these solved cases before continuing.
Entry under review: O=C1[C@@H](O)CCN1CC#CCN1CCCC1 . Reported IC50?
11

# iterate: O=C1[C@@H](S)CCN1CC#CCN1CCCCC1 [monohydrochloride]
2.5

***
Which IC50 is listed for O=C1[C@H](S)CCN1CC#CCN1CCCC1 ?
1

Every entry's value here was drawn from patent US4937235A.
